Listed next: entries and their corresponding composite z-score.
target-of-assay: Focal adhesion kinase 1 (Homo sapiens)
method-summary: small-molecule microarray binders of FAK, primary screen, biochemical, 635/667 nm fluorescence, BSA, DTT (AID 1130);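 also: composite of spot emission at 667 nm and signal to noise over triplicate slides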
condition-summary: PTK2 binding, 635 nm fluorescence, higher = more signal
Hey, just send me the number, nothing else.

Sample answers from the record:
compound: Cc1ccc(C(C)CC(O)C2C=CC3C(=O)N(c4ccccc4)C(=O)C3N2Nc2ccc([N+](=O)[O-])cc2)o1 (stereo not drawn)
composite z-score: 0.772
--
compound: O=C1c2ccccc2[C@](Cc2ccccc2I)(C(=O)NC2CC2)[C@H](c2ccc(CO)cc2)N1Cc1ccccc1
composite z-score: -0.186
--
compound: COc1ccc([C@H]2OC[C@@H]3CC4(CC=CC4)C(=O)N32)cc1
composite z-score: 0.282
--
compound: CCCCCN1CC=CC23O[C@@H]4/C=C\CCCOC(=O)C4[C@H]2C(=O)N(CCCO)[C@@H]3C1=O (stereo partly drawn)
composite z-score: 1.23
--
compound: C=CC[C@]1(C(=O)N2CCCCC2)N=C(c2ccc(OCCCO)cc2)O[C@H]1c1ccccc1
composite z-score: 0.702

# query: composite z-score of entry `C=CCNC(=O)[C@H]1[C@@H]2C(=O)O[C@@H](c3ccccc3)[C@@H](c3ccccc3)N2[C@@H](c2ccc(O)cc2)[C@]12C(=O)N(C(=O)OCCOC)c1ccc(C#CCNC(N)=O)cc12` 0.0197

Query COc1ccc(NN2C(C(O)c3ccc([N+](=O)[O-])cc3)C=CC3C(=O)N(C4CCCCC4)C(=O)C32)cc1 (stereo not drawn) next 0.201

----------
target-of-assay: Homeobox protein Hox-A13 (Mus musculus) (UniProt Q62424)
Sequence (Q62424 whole entry, looked up): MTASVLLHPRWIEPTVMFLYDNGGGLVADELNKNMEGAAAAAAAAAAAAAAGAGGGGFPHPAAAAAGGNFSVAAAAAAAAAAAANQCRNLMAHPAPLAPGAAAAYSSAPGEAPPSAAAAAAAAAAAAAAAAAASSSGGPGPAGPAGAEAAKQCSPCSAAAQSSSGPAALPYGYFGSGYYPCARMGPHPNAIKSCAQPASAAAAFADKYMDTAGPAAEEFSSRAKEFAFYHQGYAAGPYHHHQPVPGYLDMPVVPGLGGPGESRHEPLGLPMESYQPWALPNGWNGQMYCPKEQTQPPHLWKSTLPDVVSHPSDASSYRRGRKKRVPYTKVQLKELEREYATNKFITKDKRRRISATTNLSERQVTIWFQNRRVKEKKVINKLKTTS
method-summary: inhibitors of HoxA13-DNA binding, primary screen, biochemical, fluorescence polarization, labeled oligonucleotide (AID 1185)
condition-summary: 15 min, higher = more signal, called active from +8 up or from −8 down
Listed next: entries and their corresponding z-score.
Hey, just send me the number, nothing else.

Sample answers from the record:
molecule: O=C1c2ccccc2[C@@]2(Cc3ccccc3N(CCN3CCOCC3)C2=O)[C@H](c2ccc(CO)cc2)N1Cc1ccccc1
reported-measurement: -0.421

molecule: C=C(/C(=C/C[C@@H](OC(C)=O)c1ccc(OCCO)cc1)c1cnc2ccccc2c1)C(C)C
reported-measurement: -4.09

molecule: COCCOC(=O)N1C(=O)[C@@]2(c3cc(C#CC4=CCCCC4)ccc31)[C@H](C(=O)N1CCc3cc(OC)c(OC)cc3C1)[C@H]1C(=O)O[C@H](c3ccccc3)[C@H](c3ccccc3)N1[C@@H]2c1ccc(OCCO)cc1
reported-measurement: 3.59

molecule: [N-]=[N+]=Nc1ccccc1C[C@@]1(C(=O)NCCN2CCOCC2)N=C(c2ccc(OCCCO)cc2)O[C@@H]1c1ccccc1
reported-measurement: -4.23

molecule: COC(=O)[C@@]1(Cc2ccc(OC)cc2)[C@H]2c3cc(C(=O)N(C)C)n(CCN4CNCC4=O)c3C[C@H]2CN1C(=O)c1ccccc1
reported-measurement: -4.73

Now look at this entry.
# query: z-score of entry C=CCC(OC(C)=O)[C@@H]1[C@@H](N(Cc2ccc(-c3cccc(C(F)(F)F)c3)o2)C(=O)c2ccc(-c3ccccc3)cc2)c2cc(OCCCO)ccc2N1C(=O)c1ccc(-c2ccccc2)cc1 (stereo partly drawn) -0.737

----------
Listed next: entries and their corresponding z-score.
method-summary: basal S. cerevisiae growth modulation, no modifier, primary screen, OD600, strain BY4716, 24 h, basal condition (AID 1173)
condition-summary: OD600, 24 h, higher = more signal, called active from +8 up or from −8 down
Hey, just send me the number, nothing else.

Sample answers from the record:
mol-smiles: C=CCN1C(=O)[C@]2(O[C@H](CCO)[C@@H]([Si](C)(C)c3ccc(OC)cc3)[C@@H]2C)c2cc(N3C(=O)c4cccc5cccc3c45)ccc21
z-score: 1.7

mol-smiles: COCCOC(=O)N1C(=O)[C@@]2(c3cc(C#CC4=CCCCC4)ccc31)[C@H](c1ccc(O)cc1)N1[C@H](c3ccccc3)[C@H](c3ccccc3)OC(=O)[C@H]1[C@@H]2C(N)=O
z-score: -0.167

mol-smiles: CCOC(=O)C[C@H]1[C@H](OC(=O)Cc2ccc3c(c2)OCO3)[C@@H](NC(=O)c2ccc(-c3ccccc3)cc2)c2cc(OCCCO)ccc2N1C(=O)Cc1ccc(OC)cc1
z-score: -1.02

# query: z-score of entry `COCCOC(=O)N1C(=O)[C@@]2(c3cc(C#CC4(O)CCCCCC4)ccc31)[C@H](c1ccc(O)cc1)N1[C@H](c3ccccc3)[C@H](c3ccccc3)OC(=O)[C@H]1[C@@H]2C(=O)Nc1nc2ccccc2s1` -0.213

Query `C=CCOC(=O)[C@H]1[C@@H]2C(=O)O[C@@H](c3ccccc3)[C@@H](c3ccccc3)N2[C@@H](c2ccc(OCCOC(=O)[C@H]3C[C@H]4C(=O)N5CCC[C@H]5C(=O)N4[C@H]3c3ccc(O)cc3)cc2)[C@]12C(=O)Nc1ccccc12` next 1.66

----------
target-of-assay: Torsin-1A-interacting protein 2 (Homo sapiens) (UniProt Q8NFQ8)
Sequence (Q8NFQ8 whole entry, looked up): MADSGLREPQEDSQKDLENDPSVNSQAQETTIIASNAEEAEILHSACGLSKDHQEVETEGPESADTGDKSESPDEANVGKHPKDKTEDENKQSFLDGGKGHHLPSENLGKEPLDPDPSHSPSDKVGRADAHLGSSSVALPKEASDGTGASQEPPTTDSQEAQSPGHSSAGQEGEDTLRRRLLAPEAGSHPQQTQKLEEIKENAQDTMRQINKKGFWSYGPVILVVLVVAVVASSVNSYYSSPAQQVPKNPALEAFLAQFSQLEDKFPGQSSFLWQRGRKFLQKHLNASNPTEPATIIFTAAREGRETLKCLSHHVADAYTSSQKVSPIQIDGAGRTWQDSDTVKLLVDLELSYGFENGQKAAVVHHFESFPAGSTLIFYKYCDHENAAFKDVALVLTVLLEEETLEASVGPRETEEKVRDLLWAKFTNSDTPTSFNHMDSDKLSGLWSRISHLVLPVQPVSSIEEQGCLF
method-summary: LULL1 binders on small-molecule microarray, primary screen, cell lysate, human LULL1 lysate, 635/667 nm fluorescence (AID 1092);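 also: probe is lysate of COS7 cells overexpressing human LULL1; score merges per-feature 667 nm fluorescence with signal-to-noise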
condition-summary: hLULL1 lysate binding, 635 nm fluorescence, higher = more signal
measurement-kind: composite z-score

compound: COC(=O)[C@@]1(Cc2ccccc2)[C@H]2c3cc(C(=O)N4CCCC4)n(Cc4cccc5ccccc45)c3C[C@H]2CN1C(=O)c1ccccc1
composite z-score: 2.54
//
compound: CC(C)(C)OC(=O)CC[C@]1(C(=O)NCC(O)CO)COC(c2ccc(OCCCO)cc2)=N1 (some centres undefined)
composite z-score: 3.71
//
compound: O=C(NCC(F)(F)F)[C@@H]1c2ccccc2C(=O)N(C2CCCCC2)[C@H]1c1ccc(CO)cc1
composite z-score: 1.76
//
compound: C=CCC(OC(C)=O)[C@@H]1[C@@H](N(Cc2ccc(-c3cccc(C(F)(F)F)c3)o2)C(=O)c2ccc(-c3ccccc3)cc2)c2cc(OCCCO)ccc2N1C(=O)c1ccc(-c2ccccc2)cc1 (some centres undefined)
composite z-score: 1.03
//
compound: Cc1ccc(S[C@]2(C(=O)NC3CC3)CC(=O)N(C3Cc4ccccc4C3)[C@@H]2c2ccc(CO)cc2)cc1
composite z-score: 3.08
//
compound: O=C1OCCC/C=C\[C@H]2OC34C=CCN(CCN5CCOCC5)C(=O)[C@H]3N(CCCO)C(=O)[C@@H]4C12 (some centres undefined)
composite z-score: 3.54

# query: composite z-score of entry `COCCOC(=O)N1C(=O)[C@@]2(c3cc(C#CC4=CCCCC4)ccc31)[C@H](C(=O)Nc1nc3ccccc3s1)[C@H]1C(=O)O[C@H](c3ccccc3)[C@H](c3ccccc3)N1[C@@H]2c1ccccc1OCCO` 2.15

----------
method-summary: E. coli acrAB mutant growth effects, primary screen, E. coli filamentation inducers, strain DRC39, OD650, 24 h (AID 1178);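 also: growth measured as culture turbidity by optical density at 650 nm; test concentration not given here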
condition-summary: higher = more signal, called active from +8 up or from −8 down
Use -0.3 as the dividing line for z-score, with the line itself on the met side and lower values as not met.

compound: C#CCN(Cc1ccccc1Br)C(/C=C/c1ccccc1)CO (stereo not drawn)
discrete-label: met

compound: CN1C(=O)C2C=CC(C(O)c3cccs3)N(Nc3ccccc3)C2C1=O (stereo not drawn)
discrete-label: not met

compound: C=CCC(OC(C)=O)[C@@H]1[C@@H](N(Cc2ccc(-c3ccccc3)cc2)C(=O)Cc2ccc(F)cc2)c2cc(OCCCO)ccc2N1C(=O)c1ccc(-c2ccccc2)cc1 (stereo partly drawn)
discrete-label: met

Record `O=C1O[C@H](c2ccccc2)[C@H](c2ccccc2)N2[C@H]1[C@@H](C(=O)Nc1nc3ccccc3s1)[C@]1(C(=O)Nc3ccc(C#CCCO)cc31)[C@H]2c1ccc(OCCO)cc1` ; criterion: z-score no lower than -0.3. Met? not met

Query `O=C(c1ccccc1)N1Cc2ccccc2[C@@H]2OC(c3ccc(OCCCO)cc3)=N[C@]2(Cc2ccccc2)C1=O` next met

Query `C=C(CCCC)C(=O)CC[C@H](OC(=O)c1cccnc1)c1ccccc1OCCO` next met

Query O=C1OCCC/C=C\[C@H]2OC34C=CCN(Cn5nnc6ccccc65)C(=O)[C@H]3N(CCO)C(=O)[C@@H]4C12 (stereo partly drawn) next met

Query `O=C1c2ccccc2[C@](Cc2ccccc2I)(C(=O)NC2CC2)[C@H](c2ccc(CO)cc2)N1Cc1ccccc1` next met

Query `C=CCOC(=O)[C@@H]1[C@H]2C(=O)O[C@H](c3ccccc3)[C@H](c3ccccc3)N2[C@H](c2ccc(OCCOC(=O)[C@@H]3C[C@@H]4C(=O)N[C@@H](CCCCN(C)C)C(=O)N4[C@@H]3c3ccc(O)cc3)cc2)[C@@]12C(=O)Nc1ccc(I)cc12` next not met

----------
method-summary: RPMI8226 myeloma cell viability, profiling panel, resazurin fluorescence, basal, 24 h, PK04 Diversity Set (AID 1180);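 also: RPMI8826 multiple myeloma cell line at 5000 cells per well; test concentration not given here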
condition-summary: higher = more signal
Use -0.08 as the dividing line for z-score, with the line itself on the T side and lower values as F.

Use the examples below as a reference point.
compound: C=CCOC(=O)[C@H]1[C@@H]2C(=O)O[C@@H](c3ccccc3)[C@@H](c3ccccc3)N2[C@@H](c2ccc(OCCOC(=O)[C@@H]3C[C@@H]4C(=O)N5CCC[C@H]5C(=O)N4[C@@H]3c3cccc(OCCO)c3)cc2)[C@]12C(=O)Nc1ccccc12
discrete-label: T
//
compound: COC(=O)[C@@]1(Cc2ccc(OC)cc2)[C@H]2c3cc(C(=O)N4CCCC4)n(Cc4ccc(OC)c(OC)c4)c3C[C@H]2CN1C(=O)c1ccccc1
discrete-label: F
//
compound: COc1cc(CO)cc(I)c1O[C@H]1C=C(C(=O)NCCO)C[C@@H](N(CCN2CCOCC2)C(=O)C2CCOC2)[C@@H]1O (some centres undefined)
discrete-label: T

Record C=C(C)C1C(=C)CN([C@H](CO)c2ccccc2)C1=O (some centres undefined) ; criterion: z-score no lower than -0.08. Met? F

Query O=C1NC(=O)C2C1C=CC(C(O)c1ccccc1)N2Nc1ccc(Cl)cc1Cl (centres undefined) next F
